- assay-system: UniProt Q86TI2
- Sequence (Q86TI2 2-863 limits assumed): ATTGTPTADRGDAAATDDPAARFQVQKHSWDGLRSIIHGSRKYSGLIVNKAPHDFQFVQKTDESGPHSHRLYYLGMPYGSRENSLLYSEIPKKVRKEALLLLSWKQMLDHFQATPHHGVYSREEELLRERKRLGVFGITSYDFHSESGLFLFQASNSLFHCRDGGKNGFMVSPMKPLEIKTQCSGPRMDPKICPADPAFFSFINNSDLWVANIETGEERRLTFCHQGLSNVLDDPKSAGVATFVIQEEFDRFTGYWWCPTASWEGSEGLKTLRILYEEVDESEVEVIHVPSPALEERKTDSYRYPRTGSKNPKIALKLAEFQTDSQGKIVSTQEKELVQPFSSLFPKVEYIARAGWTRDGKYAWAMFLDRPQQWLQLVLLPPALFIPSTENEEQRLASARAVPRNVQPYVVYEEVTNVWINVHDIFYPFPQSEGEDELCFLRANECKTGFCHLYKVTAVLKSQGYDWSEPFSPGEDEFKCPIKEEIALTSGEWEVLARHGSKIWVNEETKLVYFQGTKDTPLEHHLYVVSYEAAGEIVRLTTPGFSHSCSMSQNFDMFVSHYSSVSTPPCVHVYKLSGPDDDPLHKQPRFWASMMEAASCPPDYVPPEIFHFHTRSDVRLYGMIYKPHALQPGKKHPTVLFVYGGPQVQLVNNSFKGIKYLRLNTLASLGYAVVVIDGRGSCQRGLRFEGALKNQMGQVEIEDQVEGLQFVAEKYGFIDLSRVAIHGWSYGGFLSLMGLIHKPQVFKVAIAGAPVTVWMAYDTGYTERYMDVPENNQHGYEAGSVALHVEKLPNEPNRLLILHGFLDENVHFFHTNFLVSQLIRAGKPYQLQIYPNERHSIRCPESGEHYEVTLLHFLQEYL
- assay-explanation: Inhibition of DPP9 at 20 uM
Label Satisfied for high-side inhibition (at or above 60%) and Not satisfied for low-side inhibition (below it).

Check out these entries, answers already filled in.
C#C[C@@H]1C[C@H](F)CN1C(=O)CC(C)(C)CC(=O)N[C@H]1C[C@@H]1c1cccc(Cl)c1 Satisfied
CC(C)(CC(=O)N1CC=CCC1)NCC(=O)N1C[C@@H](F)C[C@H]1C#N Not satisfied
COc1ccc(NC(=O)CC(C)(C)NCC(=O)N2C[C@@H](F)C[C@H]2C#N)cc1OC Satisfied

QUERY: Textbook exercise: given the entry CN1CCN(C(=O)CC(C)(C)NCC(=O)N2C[C@@H](F)C[C@H]2C#N)CC1 , state whether its inhibition is greater than or equal to 60%.
RESULT: Satisfied
